# measured_target: RIPK1 kinase (Homo sapiens)
# Construct: purchased Promega VA7593
# Sequence (Q13546 1-671): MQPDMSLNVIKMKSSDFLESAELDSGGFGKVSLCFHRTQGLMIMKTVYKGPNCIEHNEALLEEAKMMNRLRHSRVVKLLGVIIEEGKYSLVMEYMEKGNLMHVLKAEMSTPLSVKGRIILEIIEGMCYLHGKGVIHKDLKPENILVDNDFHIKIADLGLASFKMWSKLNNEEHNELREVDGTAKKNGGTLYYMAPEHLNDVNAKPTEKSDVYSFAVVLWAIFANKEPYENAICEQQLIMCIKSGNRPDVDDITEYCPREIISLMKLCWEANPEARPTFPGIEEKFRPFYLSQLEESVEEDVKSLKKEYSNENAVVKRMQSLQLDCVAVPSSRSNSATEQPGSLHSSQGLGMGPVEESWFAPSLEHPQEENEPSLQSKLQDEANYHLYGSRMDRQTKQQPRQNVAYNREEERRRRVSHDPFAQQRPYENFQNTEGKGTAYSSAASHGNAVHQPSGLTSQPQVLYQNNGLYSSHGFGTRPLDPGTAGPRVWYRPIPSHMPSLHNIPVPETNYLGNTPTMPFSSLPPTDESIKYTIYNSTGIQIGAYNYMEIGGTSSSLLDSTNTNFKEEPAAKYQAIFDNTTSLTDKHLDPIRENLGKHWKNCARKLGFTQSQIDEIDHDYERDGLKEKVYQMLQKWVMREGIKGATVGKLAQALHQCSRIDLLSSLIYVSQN
# experiment: In vitro RIPK1 kinase activity assay (ADP-Glo), inhibition by compounds at 1 μM
# Type: biochemical
# protocol_conditions: compound 1 μM; ATP 10 μM; MBP substrate 100 μg/mL; read-out: RIPK1 kinase activity inhibition rate range
# inhibition at 1 µM annotations

1. C[C@H](Cc1ccccc1)NC(=O)C(=O)N[C@H]1COc2ccc(C#CCCO)cc2N(C)C1=O
50 to 74%
2. CN1C(=O)[C@@H](NC(=O)C(=O)NCCc2ccccc2)COc2ccccc21
≥ 75%
3. CN1C(=O)[C@@H](NC(=O)C(=O)NCCc2ccccc2)COc2ccc(C#CC3(O)CCCCC3)cc21
50 to 74%
4. CN1C(=O)[C@@H](NC(=O)C(=O)NCCc2cccc(F)c2)COc2ccc(C#CCN3CC[C@H](O)C3)cc21
50 to 74%
5. C[C@H](CNC(=O)C(=O)N[C@H]1COc2ccc(C#CCCO)cc2N(C)C1=O)c1ccccc1
50 to 74%

q: Tell me the measured inhibition at 1 µM of C[C@@H](NC(=O)C(=O)N[C@H]1COc2ccc(C#CCN3CC[C@H](O)C3)cc2N(C)C1=O)c1ccccc1 , please.
a: ≥ 75%

q: So what's the measured inhibition at 1 µM for this one? CN1C(=O)[C@@H](NC(=O)C(=O)NCCc2ccccc2)COc2cc(Br)ccc21
a: ≥ 75%
